Give measured Mean normalized OD for each item. Keep answers brief.
- assay-target: T1, full-length trimeric SARS-CoV-2 Spike protein (Spike-H6) (SARS-CoV-2, N-glycosylated (22 N-glycosylation sites))
- T1 construct: also called trimeric Spike; full-length Spike-H6
- assay-protocol: ELISA screen
Hi, when you answer, please include the unit after the number. Thanks!

The binder listed as Clec2h CRD-mouse IgG2a-Fc fusion protein (Fc fusion) FGSKCFYFSEDMGNWTFSQSSCVASNSHLALFHSLEELNFLKRYKGTSDHWIGLHRASTQHPWIWTDNTEYSNLVLTRGGGECGFLSDNGISSGRSYTHRKWICSGGGSGGGSGGGS has a reported Mean normalized OD of -0.387 OD

Lab note: measured Mean normalized OD of Lgalsl CRD-mouse IgG2a-Fc fusion protein (Fc fusion) PFCGHIKGGMRPGKKVLVMGIVDLNPESFAISLTCGDSEDPPADVAIELKAVFTDRQLLRNSCISGERGEEQSAIPYFPFIPDQPFRVEILCEHPRFRVFVDGHQLFDFYHRIQTLSAIDTIKINGDLQIGGGSGGGSGGGS was 0.006 OD

Sell CRD-mouse IgG2a-Fc fusion protein (Fc fusion) WTYHYSEKPMNWENARKFCKQNYTDLVAIQNKREIEYLENTLPKSPYYYWIGIRKIGKMWTWVGTNKTLTKEAENWGAGEPNNKKSKEDCVEIYIKRERDSGKWNDDACHKRKAALCGGGSGGGSGGGS yielded Mean normalized OD of -0.016 OD

// Mean normalized OD lookup, binder = Lgals2 CRD-mouse IgG2a-Fc fusion protein (Fc fusion) KFEVKDLNMKPGMSLKIKGKIHNDVDRFLINLGQGKETLNLHFNPRFDESTIVCNTSEGGRWGQEQRENHMCFSPGSEVKITITFQDKDFKVTLPDGHQLTFPNRLGHNQLHYLSMGGLQISSFKLEGGGSGGGSGGGS , result: 0.035 OD

For this binder ( Ly75_5 CRD-mouse IgG2a-Fc fusion protein (Fc fusion) IEGSEYWFVADPHLNYEEAVLYCASNHSFLATITSFTGLKAIKNKLANISGEEQKWWVKTSENPIDRYFLGSRRRLWHHFPMTFGDECLHMSAKTWLVDLSKRADCNAKLPFICEGGGSGGGSGGGS ), measured Mean normalized OD is -0.17 OD

Field Mean normalized OD (entry Siglec10 CRD-mouse IgG2a-Fc fusion protein (Fc fusion) VQRIVKAQEGLCIFVPCSFSSPEGKWLNRSPLYGYWFKGIRKPSLSFPVATNNKDKVLEWEARGRFQLLGDISKKNCSLLIKDVQWGDSTNYFFRMERGFERFSFKEEFRLQVGGGSGGGSGGGS ) reads 0.046 OD

Item: Ly75_8 CRD-mouse IgG2a-Fc fusion protein (Fc fusion) FQNSCYNFMITNNRHKTVTPEEVQSTCEKLHSKAHSLSIRNEEENTFVVEQLLYFNYIASWVMLGITYENNSLMWFDKTALSYTHWRTGRPTVKNGKFLAGLSTDGFWDIQSFNVIEETLHFYQGGGSGGGSGGGS | Mean normalized OD: 0.011 OD
